Biological target: Peroxisome proliferator-activated receptor delta (Homo sapiens, UniProt Q03181)
Sequence (Q03181 whole entry): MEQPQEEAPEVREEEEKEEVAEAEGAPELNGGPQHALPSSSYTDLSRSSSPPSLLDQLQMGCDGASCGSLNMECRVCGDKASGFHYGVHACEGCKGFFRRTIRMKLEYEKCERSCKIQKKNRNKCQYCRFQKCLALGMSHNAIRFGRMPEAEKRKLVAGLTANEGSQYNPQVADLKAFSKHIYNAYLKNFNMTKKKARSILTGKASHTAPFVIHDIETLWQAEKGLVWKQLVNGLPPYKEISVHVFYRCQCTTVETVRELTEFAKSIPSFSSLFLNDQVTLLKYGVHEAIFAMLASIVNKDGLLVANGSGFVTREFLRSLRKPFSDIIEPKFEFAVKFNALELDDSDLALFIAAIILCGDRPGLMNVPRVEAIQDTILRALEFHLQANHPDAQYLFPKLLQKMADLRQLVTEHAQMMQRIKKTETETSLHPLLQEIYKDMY
Test: Agonist activity at human PPARdelta transfected in African green monkey COS-7 cells co-transfected with pGL4.35 and pBIND reporter gene plasmid assessed as receptor transactivation incubated for 16 hrs by luciferase reporter gene assay
Experimental Readout: pEC50
Convention used: pEC50 is expressed as -log10 of the molar concentration.

- Compound: "O=C(O)CCCc1cc2cc(Cl)ccc2n1S(=O)(=O)c1ccc2ncsc2c1"
  pEC50: 5.54
- Compound: "CC(C)(Oc1ccc(CN2CCN(c3ccc(C(F)(F)F)cc3)CC2)cc1)C(=O)O"
  pEC50: 5.36
- Compound: "Cc1cc(CN2CCN(c3cnc(C(F)(F)F)nc3)CC2)cc(C)c1OC(C)(C)C(=O)O"
  pEC50: 5.49

stdin: Write pEC50 of Cc1cc(CN2CCN(c3ccc(C(F)(F)F)cc3)CC2)cc(C)c1OC(C)(C)C(=O)O ; system used: Peroxisome proliferator-activated receptor delta (Homo sapiens, UniProt Q03181)
stdout: 6.10

stdin: Write pEC50 of Cc1cc(CN2CCN(c3ncc(C(F)(F)F)cn3)CC2)cc(C)c1OC(C)(C)C(=O)O ; system used: Peroxisome proliferator-activated receptor delta (Homo sapiens, UniProt Q03181)
stdout: 6.10

stdin: Write pEC50 of CC(C)(Oc1ccc(CCNC(=O)c2ccc(Cl)cc2)cc1)C(=O)O [BEZAFIBRATE] ; system used: Peroxisome proliferator-activated receptor delta (Homo sapiens, UniProt Q03181)
stdout: 4.30

stdin: Write pEC50 of Cc1cc(CN2CCN(Cc3ccc(C(F)(F)F)cn3)CC2)cc(C)c1OC(C)(C)C(=O)O ; system used: Peroxisome proliferator-activated receptor delta (Homo sapiens, UniProt Q03181)
stdout: 5.70

----------
Target: Peroxisome proliferator-activated receptor gamma (Homo sapiens, UniProt P37231)
Sequence (P37231 whole entry): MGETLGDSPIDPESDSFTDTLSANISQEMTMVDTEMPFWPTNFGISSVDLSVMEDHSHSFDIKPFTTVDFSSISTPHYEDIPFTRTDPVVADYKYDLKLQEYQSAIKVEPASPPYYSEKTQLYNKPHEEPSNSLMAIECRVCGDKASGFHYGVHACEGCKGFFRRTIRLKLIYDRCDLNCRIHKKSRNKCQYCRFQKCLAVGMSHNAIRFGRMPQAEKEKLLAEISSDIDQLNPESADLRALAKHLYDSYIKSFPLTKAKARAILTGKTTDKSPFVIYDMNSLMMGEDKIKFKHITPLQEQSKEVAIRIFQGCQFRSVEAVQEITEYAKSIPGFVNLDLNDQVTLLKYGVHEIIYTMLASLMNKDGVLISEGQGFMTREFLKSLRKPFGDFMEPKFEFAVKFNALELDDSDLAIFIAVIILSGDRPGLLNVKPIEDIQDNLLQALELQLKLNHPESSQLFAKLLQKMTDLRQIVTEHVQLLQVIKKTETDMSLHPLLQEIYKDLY
Experiment: Agonist activity at human PPARgamma transfected in African green monkey COS-7 cells co-transfected with pGL4.35 and pBIND reporter gene plasmid assessed as receptor transactivation incubated for 16 hrs by luciferase reporter gene assay
Experimental Readout: EC50

// known answers, use as guide
- Cpd Smiles: "Cc1cc(CN2CCN(c3ccc(C(F)(F)F)cc3)CC2)cc(C)c1OC(C)(C)C(=O)O"
  Observed Result: "> 10 µM"
- Cpd Smiles: "Cc1cc(CN2CCN(c3cnc(C(F)(F)F)nc3)CC2)cc(C)c1OC(C)(C)C(=O)O"
  Observed Result: "> 10 µM"

Next item in the queue.
stdin: Consider the molecule Cc1cc(CN2CCN(Cc3ccc(C(F)(F)F)cn3)CC2)cc(C)c1OC(C)(C)C(=O)O . State its measured EC50.
stdout: 8.6 µM

Each recorded value in this set is attributed to ChEMBL document CHEMBL5500338.
